# assay.details: Tigecycline plasma PK and % F after PO enteric-coated capsule in dogs
# Assay type: in vivo, Beagle dogs
# experimental.setup: female, beagle, dog, plasma, po, 30 mg, Tigecycline Plasma Concentration, Time (min) 0.7; PO 30 mg enteric-coated capsule with 500 mg CA and 100 mg LLC, SC430; mean

[
  {
    "sample.smiles": "CN(C)c1cc(NC(=O)CNC(C)(C)C)c(O)c2c1C[C@H]1C[C@H]3[C@H](N(C)C)C(O)=C(C(N)=O)C(=O)[C@@]3(O)C(O)=C1C2=O",
    "concentration at 0.7 min": "0.0264 µg/mL"
  }
]

====

# assay.details: Tigecycline plasma PK and % F after PO enteric-coated capsule in dogs
# Format: in vivo, Beagle dogs
# experimental.setup: female, beagle, dog, plasma, po, 30 mg, Tigecycline Plasma Concentration, 10.0 hr; PO 30 mg unformulated enteric-coated capsule, SC430; mean
metric.name: concentration at 10 hr

[
  {
    "molecule": "CN(C)c1cc(NC(=O)CNC(C)(C)C)c(O)c2c1C[C@H]1C[C@H]3[C@H](N(C)C)C(O)=C(C(N)=O)C(=O)[C@@]3(O)C(O)=C1C2=O [Tigecycline]",
    "metric.name": "concentration at 10 hr",
    "recorded.result": "0 ng/mL"
  }
]
